All values here come from ChEMBL document CHEMBL4396879.

Measured Ratio Ki accompanies every entry in the list below.
Target: Muscarinic acetylcholine receptor M2 and M4 (Homo sapiens) (UniProt P08173+P08172)
Assay: Selectivity ratio of Ki for human muscarinic M4 receptor expressed in CHO-K9 cells to Ki for human muscarinic M2 receptor expressed in CHO-K9 cells
Format: cell-based
Number, no unit, nothing else.

Chemical smiles: CCC(=O)NCc1cc(C(=O)NCCN2CCC(N3CCC(n4c(=O)[nH]c5ccccc54)CC3)CC2)cc(C(=O)NCCN2CCN(CCCCC3CCN(CC(=O)N4c5ccccc5NC(=O)c5ccccc54)CC3)CC2)c1
Property: Ratio Ki
Observed measurement: 7.4
//
Chemical smiles: CC(=O)N[C@@H](CCCCN)C(=O)N[C@@H](C)C(=O)N[C@@H](CCCNC(=N)N)C(=O)NCCCCC1CCN(CC(=O)N2c3ccccc3NC(=O)c3ccccc32)CC1
Property: Ratio Ki
Observed measurement: 12

Record CC(=O)N[C@@H](Cc1c[nH]c2ccccc12)C(=O)N[C@@H](C)C(=O)N[C@@H](Cc1ccc(O)cc1)C(=O)NCCN1CCN(CCCCC2CCN(CC(=O)N3c4ccccc4NC(=O)c4ccccc43)CC2)CC1 , field Ratio Ki: 19

Record CC(=O)N[C@@H](CCCCN)C(=O)N[C@@H](CCCNC(=N)N)C(=O)NCCN1CCN(CCCCC2CCN(CC(=O)N3c4ccccc4NC(=O)c4ccccc43)CC2)CC1 , field Ratio Ki: 37

Record CC(=O)N[C@@H](Cc1ccc(O)cc1)C(=O)N[C@@H](CCCCN)C(=O)NCCCCC1CCN(CC(=O)N2c3ccccc3NC(=O)c3ccccc32)CC1 , field Ratio Ki: 6.6
